Assay: Biodistribution studies in mice (radioiodinated compounds, % ID/g-tissue)
Format: in vivo
Conditions: mouse, blood, iv, blood, 1', tracer level, but MDTA-Na 0.18M and MDTA-NMG 0.19M, read-out: Biodistribution, Blood 1'
readout: tissue uptake at 1 min (%ID/g)
Write it as a number; the unit %ID/g goes unstated.

In the examples that follow, each entry is paired with its recorded tissue uptake at 1 min.
structure=CC(=O)N(C)c1c(I)c(C(=O)Nc2ccc(CCCCCCC(=O)O)cc2)c(I)c(N(C)C(C)=O)c1I readout="tissue uptake at 1 min" number=2.38
structure=CC(=O)N(C)c1c(I)c(C(=O)NCCCCCCCCCCCC(=O)O)c(I)c(N(C)C(C)=O)c1I readout="tissue uptake at 1 min" number=2.38
structure=CC(=O)N(C)c1c(I)c(C(=O)Nc2ccc(CCCC(=O)O)cc2)c(I)c(N(C)C(C)=O)c1I readout="tissue uptake at 1 min" number=3.55

-- ask # query: tissue uptake at 1 min of entry `CC(=O)N(C)c1c(I)c(C(=O)Nc2ccc(CCCCCCCCCCC(=O)O)cc2)c(I)c(N(C)C(C)=O)c1I`
-- reply 9.14

-- ask # query: tissue uptake at 1 min of entry `CC(=O)N(C)c1c(I)c(C(=O)Nc2ccc(CC(=O)O)cc2)c(I)c(N(C)C(C)=O)c1I`
-- reply 4.83

-- ask # query: tissue uptake at 1 min of entry `CC(=O)N(C)c1c(I)c(C(=O)O)c(I)c(N(C)C(C)=O)c1I`
-- reply 4.56

-- ask # query: tissue uptake at 1 min of entry `CC(=O)N(C)c1c(I)c(C(=O)NCCCCCCC(=O)O)c(I)c(N(C)C(C)=O)c1I`
-- reply 2.44

-- ask # query: tissue uptake at 1 min of entry `CC(=O)N(C)c1c(I)c(C(=O)Nc2ccc(CCCCCCCCCCCCCCC(=O)O)cc2)c(I)c(N(C)C(C)=O)c1I`
-- reply 24.6

-- ask # query: tissue uptake at 1 min of entry `CC(=O)N(C)c1c(I)c(C(=O)Nc2ccc(CCCCCCCCCCCCCCCCCCC(=O)O)cc2)c(I)c(N(C)C(C)=O)c1I`
-- reply 36.7

-- ask # query: tissue uptake at 1 min of entry `CC(=O)N(C)c1c(I)c(C(=O)NCCCC(=O)O)c(I)c(N(C)C(C)=O)c1I`
-- reply 4.91

-- ask # query: tissue uptake at 1 min of entry `CC(=O)N(C)c1c(I)c(C(=O)NCC(=O)O)c(I)c(N(C)C(C)=O)c1I`
-- reply 4.57
